Molecular target: T1, native IHFNTHI (integration host factor of nontypeable Haemophilus influenzae) (nontypeable Haemophilus influenzae …, UniProt P43723 1-96; P43724 1-94)
T1 construct: also called NTHI IHF
T1 sequence 1: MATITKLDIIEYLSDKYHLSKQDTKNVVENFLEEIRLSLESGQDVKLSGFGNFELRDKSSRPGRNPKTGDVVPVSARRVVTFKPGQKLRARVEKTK
T1 sequence 2: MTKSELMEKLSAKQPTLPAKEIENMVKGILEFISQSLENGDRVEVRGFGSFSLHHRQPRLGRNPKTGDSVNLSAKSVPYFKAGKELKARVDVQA
Assay: SPR Biacore 3000, HuMab immobilized, IHFNTHI as analyte
Please respond with reported Kd for every item in the list.

These recorded examples may help you get a feel for the data.
| binder | value-observed |
| --- | --- |
| humanized anti-tail monoclonal antibody, heavy chain SEQ ID NO: 6 and light chain SEQ ID NO: 12 (antibody, V domains shown, also called H10215 (11E7.C7 Humanized HC3) + L10215 (11E7.C7 Humanized LC3)) VH: EVQLVESGGGLVQPGRSLRLSCTASGFTFSRYGMSWVRQAPGKGLEWVATISSGGSYTYYTDSVKGRFTISRDNAKNILYLQMNSLKTEDTAVYYCERHGGDGYWYFDVWGQGTMVTVSS VL: DIVMTQSPATLSLSPGERATLSCRASQDISNYLNWYQQKPGQAVRLLIYYTSRLHSGIPARFSGSGSGTDYTLTISSLEPEDFAVYFCQQGNPLRTFGGGTKVEIKR | ~143 nM |
| humanized anti-tail monoclonal antibody, heavy chain SEQ ID NO: 4 and light chain SEQ ID NO: 10 (antibody, V domains shown, also called HuTailMab; TP-21958) VH: EVQLVESGGGLVKPGGSLRLSCAASGFTFSRYGMSWVRQAPGKGLEWVATISSGGSYTYYTDSVKGRFTISRDNAKNSLYLQMNSLRAEDTAVYYCERHGGDGYWYFDVWGQGTMVTVSS VL: DIQMTQSPSSLSASVGDRVTITCRASQDISNYLNWYQQKPGKAVKLLIYYTSRLHSGVPSRFSGSGSGTDYTLTISSLQPEDFATYFCQQGNPLRTFGGGTKVEIKR | ~5.6 nM |
| humanized anti-tail monoclonal antibody, heavy chain SEQ ID NO: 5 and light chain SEQ ID NO: 10 (antibody, V domains shown, also called H10214 (11E7.C7 Humanized HC2) + L10213 (11E7.C7 Humanized LC1)) VH: EVQLVESGGGLVKPGGSLRLSCAASGFTFSRYGMSWVRQAPGKGLEWVSTISSGGSYTYYTDSVKGRFTISRDNAKNSLYLQMNSLRAEDTAVYYCERHGGDGYWYFDVWGQGTMVTVSS VL: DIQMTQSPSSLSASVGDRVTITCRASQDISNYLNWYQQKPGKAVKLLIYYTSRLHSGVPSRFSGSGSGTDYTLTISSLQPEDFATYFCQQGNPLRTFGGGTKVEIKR | ~3.6 nM |
| humanized anti-tail monoclonal antibody, heavy chain SEQ ID NO: 6 and light chain SEQ ID NO: 10 (antibody, V domains shown, also called H10215 (11E7.C7 Humanized HC3) + L10213 (11E7.C7 Humanized LC1)) VH: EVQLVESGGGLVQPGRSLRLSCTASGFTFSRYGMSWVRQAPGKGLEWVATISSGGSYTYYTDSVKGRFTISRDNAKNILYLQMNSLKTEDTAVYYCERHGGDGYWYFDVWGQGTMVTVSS VL: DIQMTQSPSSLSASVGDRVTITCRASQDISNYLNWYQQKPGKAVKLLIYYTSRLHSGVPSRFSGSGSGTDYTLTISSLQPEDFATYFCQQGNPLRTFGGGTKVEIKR | 18 nM |
| humanized anti-tail monoclonal antibody, heavy chain SEQ ID NO: 5 and light chain SEQ ID NO: 12 (antibody, V domains shown, also called H10214 (11E7.C7 Humanized HC2) + L10215 (11E7.C7 Humanized LC3)) VH: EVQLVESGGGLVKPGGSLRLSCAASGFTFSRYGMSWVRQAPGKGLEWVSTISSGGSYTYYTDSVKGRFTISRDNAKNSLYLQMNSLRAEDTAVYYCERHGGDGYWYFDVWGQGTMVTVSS VL: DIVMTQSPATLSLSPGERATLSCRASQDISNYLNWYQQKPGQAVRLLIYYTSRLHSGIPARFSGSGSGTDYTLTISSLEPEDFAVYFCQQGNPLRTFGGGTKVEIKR | 39 nM |
| humanized anti-tail monoclonal antibody, heavy chain SEQ ID NO: 4 and light chain SEQ ID NO: 11 (antibody, V domains shown, also called H10213 (11E7.C7 Humanized HC1) + L10214 (11E7.C7 Humanized LC2)) VH: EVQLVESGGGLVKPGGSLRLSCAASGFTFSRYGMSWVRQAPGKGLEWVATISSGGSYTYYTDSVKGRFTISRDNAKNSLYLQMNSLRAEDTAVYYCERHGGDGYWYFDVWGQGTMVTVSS VL: DIQMTQSPSSLSASVGDRVTITCRASQDISNYLNWYQQKPGKAVKLLIYYTSRLHSGVPSRFSGSGSGTDYTLTISSLQPEDFATYYCQQGNPLRTFGGGTKVEIKR | ~5.3 nM |
| humanized anti-tail monoclonal antibody, heavy chain SEQ ID NO: 5 and light chain SEQ ID NO: 11 (antibody, V domains shown, also called H10214 (11E7.C7 Humanized HC2) + L10214 (11E7.C7 Humanized LC2)) VH: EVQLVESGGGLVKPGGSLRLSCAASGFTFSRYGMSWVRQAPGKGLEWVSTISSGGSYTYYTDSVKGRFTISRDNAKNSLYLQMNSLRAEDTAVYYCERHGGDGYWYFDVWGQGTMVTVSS VL: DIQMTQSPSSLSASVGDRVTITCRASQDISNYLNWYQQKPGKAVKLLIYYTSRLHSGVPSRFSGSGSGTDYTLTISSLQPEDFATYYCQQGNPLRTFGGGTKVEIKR | ~4.4 nM |

Proceed to the following item.
INPUT: Quick one: give measured Kd for humanized anti-tail monoclonal antibody, heavy chain SEQ ID NO: 6 and light chain SEQ ID NO: 11 (antibody, V domains shown, also called H10215 (11E7.C7 Humanized HC3) + L10214 (11E7.C7 Humanized LC2)) VH: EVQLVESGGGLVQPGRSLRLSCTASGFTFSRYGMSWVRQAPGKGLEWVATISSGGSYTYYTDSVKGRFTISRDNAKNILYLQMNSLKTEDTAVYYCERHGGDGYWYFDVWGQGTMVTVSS VL: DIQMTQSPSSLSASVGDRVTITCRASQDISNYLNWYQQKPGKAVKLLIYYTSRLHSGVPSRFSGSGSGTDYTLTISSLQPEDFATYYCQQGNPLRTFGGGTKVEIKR
OUTPUT: ~14.8 nM
